// provenance: PubChem BioAssay (EPA / NIEHS)

Test: ATG_TA_CIS: Attagene CIS-FACTORIAL HepG2 Assay for human TA Basal Promoter (AID 2282964)
Details: HepG2 Attagene CIS-factorial TA basal promoter reporter; actives raise or lower the signal
The source made the active and inactive calls. The calls were made as follows: active = hit-call score of the fitted dose curve at least 0.9, where 1 is the maximum; inactive = score below 0.9.
Form entry, call: pick from Yes = active, No = inactive

{"molecule": "c1ccc2cnccc2c1", "group": "No"}
{"molecule": "CC1=CC(C)C(C=O)CC1 (stereo unspecified)", "group": "No"}
{"molecule": "Nc1nc(N)nc(-c2ccccc2)n1", "group": "No"}
{"molecule": "C=C[C@@]1(C)CC(=O)[C@]2(O)[C@@]3(C)[C@@H](O)CCC(C)(C)[C@@H]3[C@H](O)[C@H](OC(C)=O)[C@@]2(C)O1", "group": "No"}
{"molecule": "CCCCC1CCC(=O)O1 (stereo unspecified)", "group": "No"}

Status in this test for `C=CCCCCCCCCO` ?
No

* * *

Experiment: ATG_RORE_CIS: Attagene CIS-FACTORIAL HepG2 Assay for human RAR-related Orphan Receptor Element (RORE) (AID 2282959)
Conditions: HepG2 Attagene cis-factorial RORE reporter, mRNA; actives raise or lower the signal
The source made the active and inactive calls. The calls were made as follows: active = hit-call score of the fitted dose curve at least 0.9, where 1 is the maximum; inactive = score below 0.9.
Respond using exactly one of the listed classes: 1 (yes) (active), 0 (no) (inactive)

Study these solved cases before continuing.
{"molecule": "CCC1COC(=O)O1 (stereo not given)", "group": "0 (no)"}
{"molecule": "CCCCCCC=O", "group": "0 (no)"}
{"molecule": "CCOC(=O)C1=NOC(c2ccccc2)(c2ccccc2)C1", "group": "0 (no)"}

Which result was noted for this molecule in the test: `Cc1c(C(=O)c2c[nH]n(C)c2=O)ccc(S(C)(=O)=O)c1C1=NOCC1`
0 (no)

Hello, I am checking results. What call was entered for `Oc1ccc(/C=C/c2cc(O)cc(O)c2)cc1` ?
0 (no)

Lab log entry: `CN(C)c1ccc2nc3ccc(=[N+](C)C)cc-3sc2c1` — outcome as called in the assay?
0 (no)

Per the assay record, what outcome was assigned to `CCOC(=O)CC(=O)c1ccccc1` ?
0 (no)

// param item: `Cn1ccnc1` ; yields the recorded call
0 (no)

Given C=CC(C)(CCC=C(C)C)OC(=O)C=Cc1ccccc1 (stereo not given) , state the outcome it received in this test.
0 (no)

Please share the test call associated with `COc1ccc(C(=O)c2ccccc2)c(O)c1` .
1 (yes)

* * *

Read-out: Monocyte Chemoattractant Protein-1 (MCP1), CCL2 (gene 6347)
Assay: BSK_CASM3C_MCP1: BioMAP Diversity Plus: CASM3C Assay for Monocyte Chemoattractant Protein-1 (MCP1) Biomarker Activity (AID 2283046);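 also: MCP-1 level quantified by ELISA 24 h after dosing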
Conditions: primary human coronary artery smooth muscle cells; actives raise or lower the signal
Calls of active or inactive are those of the source. Rule for the calls: active = hit-call score of the fitted dose curve at least 0.9, where 1 is the maximum; inactive = score below 0.9.
Hello, when you answer, please use one of the following outcomes: active, inactive

Worked examples follow.
{"compound": "CCC1(C)C(=O)N(Cl)C(=O)N1Cl (configuration not stated)", "group": "inactive"}
{"compound": "Cc1ccc([N+](=O)[O-])cc1N", "group": "inactive"}

Per the assay record, what outcome was assigned to `Oc1ccc(/C=C/c2cc(O)cc(O)c2)cc1` ?
inactive

Entry `C=CC(=O)OCCCCCCOC(=O)C=C` : call = ?
active

What classification did `CCCCCCCCCCCC(C)=O` end up with in this test?
active

Hi, do you know how `CC(C)c1cccc(C(C)C)c1N` came out in this test?
inactive

What is the recorded call for this compound in the test? `O=C(O)C(F)(F)C(F)(F)C(F)(F)C(F)(F)C(=O)O`
inactive

Record request — test call for `O=C1CCCCCCCCCCCN1`
inactive

# lookup: test call for `C[N+](C)(C)CCCNS(=O)(=O)C(F)(F)C(F)(F)C(F)(F)C(F)(F)C(F)(F)C(F)(F)C(F)(F)C(F)(F)F`
inactive

Please indicate how the test categorized `C1CNCCN1` .
inactive

Hi, sorry to bother you, what did the test record for `CC(c1cc(C(C)(C)C)cc(C(C)(C)C)c1O)c1cc(C(C)(C)C)cc(C(C)(C)C)c1O` ?
inactive

Hi team, can someone confirm the assay call for `CCCCCC1=CCCC1=O` ?
inactive

Returns: the outcome recorded for CCOC(=O)C1=NN(c2ccc(Cl)cc2Cl)C(C)(C(=O)OCC)C1 (configuration not stated) in this assay.
inactive

Entry CCCCCCCCC(CO)CCCCCC (configuration not stated) : call = ?
inactive

Please share the test call associated with `CCCCCCCCCCCC(=O)N(C)CC(=O)O` .
inactive

What call does the record list for `CCCCC1C(=O)N(c2ccccc2)N(c2ccccc2)C1=O` ?
inactive

Returns: the outcome recorded for `Fc1ccc(Br)cc1` in this assay.
inactive

* * *

Test: CCTE_Shafer_MEA_acute_burst_percentage_mean: CCTE's Neural Acute Assay for Percentage of Spikes in a Burst, Shafer Lab (AID 2284017);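 as to AC50: curve fitted for loss of signal so potency reflects decreased burst percentage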
Calls of active or inactive are those of the source. The calls were made as follows: active = hit-call score of the fitted dose curve at least 0.9, where 1 is the maximum; inactive = score below 0.9. Peptide text beside a SMILES is read from it.
recorded-metric: AC50

Some compounds with known AC50 results, for comparison:
{"compound": "CCCCCCCCCCCC(=O)N(C)CC(=O)O", "AC50": "20.2 µM (active)"}
{"compound": "Nc1cccc(N)n1", "AC50": "0.003 µM (active)"}
{"compound": "CC(C)C(=O)OCCc1ccccc1", "AC50": "inactive"}
{"compound": "Nc1nc(N)nc(-c2ccccc2)n1", "AC50": "inactive"}

Then there is this compound:
Entry under review: COC(=O)[C@H](Cc1ccccc1)NC(=O)[C@@H](N)CC(=O)O (H-Asp-Phe-OMe) . Reported AC50?
inactive

* * *

Assay: ATG_Ets_CIS: Attagene CIS-FACTORIAL HepG2 Assay for human Erythroblast Transformation Specific (ETS) (AID 2282941)
Conditions: HepG2 ETS cis-reporter transcription, actives raise or lower the signal
Activity calls are given as the source filed them. How the source made its calls: active means hit-call score of the fitted dose curve at least 0.9, where 1 is the maximum; inactive means score below 0.9.
recorded-metric: AC50

Here's what some known entries look like.
{"molecule": "C=C(C)[C@@H]1CC=C(C)CC1", "reported-value": "inactive"}
{"molecule": "O=C1c2ccccc2C(=O)c2cc(S(=O)(=O)O)ccc21", "reported-value": "inactive"}
{"molecule": "O=C1CCCCCCCCCCC1", "reported-value": "inactive"}
{"molecule": "Cc1c[nH]c(=O)[nH]c1=O", "reported-value": "inactive"}
{"molecule": "O=C(O)c1ccc2c(c1)C(=O)OC2=O", "reported-value": "inactive"}

What does the record list as AC50 for `O=C(O)C(F)(F)C(F)(F)C(F)(F)C(F)(F)C(=O)O` ?
inactive

# input molecule: `c1ccc(-c2nc3ccccc3[nH]2)cc1` ; wanted: its AC50
inactive

* * *

Experiment: BSK_BT_PBMCCytotoxicity: PBMC Cytotoxicity Assessment in the BioMAP Diversity Plus: BT Assay (AID 2284225);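 also: PBMC viability measured by Alamar Blue dye reduction fluorescence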
Details: primary human B cells with PBMC
Active and inactive are the calls of the source. The calls were made as follows: active = hit-call score of the fitted dose curve at least 0.9, where 1 is the maximum; inactive = score below 0.9.
Respond only with the outcome that fits, drawn from T for active, F for inactive

{"smiles": "CC/C=C\\C/C=C\\C/C=C\\CCCCCCCC(=O)OC", "group": "T"}
{"smiles": "Fc1ccc(Br)cc1", "group": "F"}
{"smiles": "CC1(C)CC(O)CC(C)(C)N1[O]", "group": "F"}
{"smiles": "CCCCCCCO", "group": "F"}
{"smiles": "c1ccc2c(c1)[nH]c1ccccc12", "group": "F"}

Could you check what this test reported for `C=CC(=O)OCCCCCCOC(=O)C=C` ?
T

Check the results log: what was the call for `CC(c1cc(C(C)(C)C)cc(C(C)(C)C)c1O)c1cc(C(C)(C)C)cc(C(C)(C)C)c1O` ?
T

Name the outcome recorded for `Oc1ccc(/C=C/c2cc(O)cc(O)c2)cc1` in the assay.
F

Please state the recorded outcome for this compound: `CCCCC1C(=O)N(c2ccccc2)N(c2ccccc2)C1=O`
F

So what was the verdict on `C=C(C)C(=O)OCCCCCCCCCCCC` in this test?
F

Hi, sorry to bother you, what did the test record for `C=CC(=O)OCCCCCCCC(C)C` ?
F

Per the assay record, what outcome was assigned to `O=C(O)C(F)(F)C(F)(F)C(F)(F)C(F)(F)C(=O)O` ?
F

Hi team, can someone confirm the assay call for `COc1ccc(C(=O)c2ccccc2)c(O)c1` ?
F

Test call for this compound, please: `O=C(Oc1ccccc1)c1ccccc1C(=O)Oc1ccccc1`
T

* * *

Assay: BSK_hDFCGF_Proliferation: Cell Proliferation Assessment in the BioMAP Diversity Plus: hDFCGF Assay (AID 2283059);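 also: curves fitted for both rise and fall of signal versus DMSO baseline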
Conditions: primary human foreskin fibroblasts
Active and inactive are the calls of the source. How the source made its calls: active means hit-call score of the fitted dose curve at least 0.9, where 1 is the maximum; inactive means score below 0.9.
Choose one outcome from this list and give only that: True (active), False (inactive)

{"compound": "CC(CCC(=O)O)(c1ccc(O)cc1)c1ccc(O)cc1", "group": "False"}
{"compound": "C=C(C)C(=O)OCCCCCCCCCCCC", "group": "True"}
{"compound": "CCOC(=O)/C=C\\C(=O)OCC", "group": "False"}
{"compound": "COc1ccc(C(=O)c2ccccc2)c(O)c1", "group": "False"}
{"compound": "CC(Cl)COP(=O)(OCC(C)Cl)OCC(C)Cl (stereo unspecified)", "group": "False"}

// return assay outcome for `O=C1CCCCCCCCCCCN1`
False
